Provenance of the data: ChEMBL document CHEMBL1133886

# target or test system: Protein kinase C (PKC) (Homo sapiens) (UniProt O94806+P41743+P17252+P05129+Q05655+P05771+Q05513+Q02156+P24723+Q15139+Q04759)
# measurement notes: Percent inhibition of protein kinase C at 100 uM
# Format: protein assay
reported property: inhibition (%)
Dear colleague, please return just the value in %, with no unit written.

Study these solved cases before continuing.
Request: State the recorded inhibition for this entry: "CC(C)Cn1c2ccccc2c2c3c(c4c5ccccc5[nH]c4c21)C(=O)NC3=O"
Response: 71

Request: // lookup inhibition for "O=C1NC(=O)c2c1c1c3ccccc3[nH]c1c1c2c2ccccc2n1Cc1ccccc1"
Response: 23

Now turn to the next compound.
Request: Requested read-out: inhibition. Entry: "Cn1c2ccccc2c2c3c(c4c5ccccc5[nH]c4c21)C(=O)NC3=O"
Response: 47

---

# Test system: MRC5
# measurement notes: Inhibitory concentration against 2599R strain of HCMV in MRC5 cells
# Type: functional, cell-based
# condition notes: Homo sapiens
reported property: pIC50
In simple prose, pIC50 is minus the logarithm base ten of a concentration in moles per litre.

Request: Recall the recorded pIC50 for Nc1nc2c(ncn2COC(CO)CO)c(=O)[nH]1 [GANCICLOVIR] with MRC5 and state it.
Response: 5.80

---

# Tested on: MRC5
# measurement notes: Inhibitory concentration against AD169 HCMV strain of MRC5 cells
# Type: functional, cell-based
# condition notes: Homo sapiens
reported property: pIC50
Scale: pIC50 equals -log10([C]), with [C] in mol/L.

Request: Form field: reported pIC50 of "CCn1c2ccccc2c2c3c(c4c5ccccc5[nH]c4c21)C(=O)NC3=O"
Response: 7.72

---

# Tested on: MRC5
# measurement notes: Inhibitory concentration against Davis strain of HCMV in MRC5 cells
# Type: functional, cell-based
# condition notes: Homo sapiens
reported property: pIC50
When answering, recall that pIC50 equals minus log10 of the concentration in mol/L, and write that number alone.

Request: For "Nc1nc2c(ncn2COC(CO)CO)c(=O)[nH]1" , what is its reported pIC50?
Response: 5.85
